- TGT: human TLR8 (Homo sapiens, UniProt Q9NR97)
- Sequence (Q9NR97 27-1041): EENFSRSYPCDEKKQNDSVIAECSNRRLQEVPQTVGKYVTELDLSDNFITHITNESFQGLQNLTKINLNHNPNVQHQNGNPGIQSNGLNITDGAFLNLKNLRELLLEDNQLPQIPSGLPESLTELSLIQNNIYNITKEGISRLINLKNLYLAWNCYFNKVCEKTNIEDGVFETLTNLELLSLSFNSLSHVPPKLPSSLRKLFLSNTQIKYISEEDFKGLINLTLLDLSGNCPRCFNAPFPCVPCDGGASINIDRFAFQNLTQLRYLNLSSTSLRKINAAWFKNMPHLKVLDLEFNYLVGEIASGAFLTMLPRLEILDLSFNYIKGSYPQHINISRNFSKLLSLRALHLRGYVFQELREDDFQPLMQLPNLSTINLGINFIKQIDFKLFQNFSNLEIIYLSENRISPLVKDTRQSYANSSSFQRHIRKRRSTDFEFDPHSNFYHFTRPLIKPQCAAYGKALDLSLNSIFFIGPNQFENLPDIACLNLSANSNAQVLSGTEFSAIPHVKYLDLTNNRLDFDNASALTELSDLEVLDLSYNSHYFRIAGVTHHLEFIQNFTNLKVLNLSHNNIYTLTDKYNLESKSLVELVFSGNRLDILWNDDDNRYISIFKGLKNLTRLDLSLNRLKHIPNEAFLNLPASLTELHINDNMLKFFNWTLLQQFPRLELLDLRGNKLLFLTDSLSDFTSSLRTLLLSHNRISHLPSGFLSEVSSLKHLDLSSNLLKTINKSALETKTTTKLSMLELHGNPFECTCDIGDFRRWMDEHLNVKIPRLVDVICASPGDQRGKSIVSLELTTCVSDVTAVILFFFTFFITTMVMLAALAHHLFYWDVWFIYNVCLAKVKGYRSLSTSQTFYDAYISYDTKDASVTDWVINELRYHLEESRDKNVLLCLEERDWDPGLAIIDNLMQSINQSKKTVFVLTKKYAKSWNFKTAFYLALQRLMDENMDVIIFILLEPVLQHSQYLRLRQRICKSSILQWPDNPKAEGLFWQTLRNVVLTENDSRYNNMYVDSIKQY
- ASSAY NOTES: TLR8 inhibition reporter assay (HEK-Blue SEAP)
- REPORTED CONDITIONS: HEK-Blue cells overexpressing human TLR8, stimulated with R848 15.9 μM, 22 hour incubation
- Description: TLR7/8/9 Inhibition Reporter Assays HEK-Blue™-cells (Invivogen) overexpressing human TLR7, TLR8 or TLR9 receptors were used for screening inhibitors of these receptors using an inducible SEAP (secreted embryonic alkaline phosphatase) reporter gene under the control of the IFN-β minimal promoter fused to five NF-κB and AP-1-binding sites. […]
Below: a set of entries, each annotated with reported IC50.
Only the number, expressed in µM, is required.

Ask: Any idea what IC50 came out for CCCN1CCC(Oc2ccc3[nH]c(-c4cn5cnnc5c(C)c4C)c(C(C)C)c3c2)CC1 on human TLR8 (Homo sapiens, UniProt Q9NR97)?
Reply: 0.0025

Ask: For Cc1c(-c2[nH]c3ccc(OC4CCN(C5COC5)CC4)cc3c2C(C)C)cn(C)c(=O)c1C then?
Reply: 0.0213

Ask: For Cc1cc(-c2[nH]c3ccc(O[C@H]4CCCN(C)C4)cc3c2C(C)C)cn(C)c1=O then?
Reply: 0.0563

Ask: For Cc1cc(-c2[nH]c3ccc(OCC4CCN(CC(=O)N(C)C)CC4)cc3c2C(C)C)cc(C)n1 then?
Reply: 0.0085

Ask: For Cc1cc(-c2[nH]c3ccc(OCC4CCN(C)CC4)cc3c2C(C)C)cn2ncnc12 then?
Reply: 0.0057

Ask: For COc1ccc(-c2[nH]c3ccc(OCC(=O)N(C)C4CCCNC4)cc3c2C(C)C)cc1OC (centres unmarked) then?
Reply: 0.0153

Ask: For Cc1cc(-c2[nH]c3ccc(OCC(=O)N4CC5CNCC5C4)cc3c2C(C)C)ccn1 (centres unmarked) then?
Reply: 0.137

Ask: For COCCN1CCC(COc2ccc3[nH]c(-c4ccnc(C)c4)c(C(C)C)c3c2)C1 (centres unmarked) then?
Reply: 0.0137
